System under test: pooled human IgG (human IgG1,2,3 and 4)
Metric: Enzyme Activity Endpoint Assay: scIgG (ng/µL)
Expressed in ng/µL, but write only the number.

>  <Protein>
PRT-480 (protein) MITSVWTKGVTPPTDFIYGEDVLHAPYKAGQGWYDITKAFDGGDDLLCGAATAGNMLHWWFDQNKEQIENYLKKHPEKQKINFNGEQMFDVKEAIDTKDSQTNSELFNYFKEKAFPYLSTKHLGVFPDHVIDMFINGYRLSLTNHGPTPVKRGSKDPRGGIFDAVFTRGDQSKLLTNRHDLKNKTLNEISQLIKQELTEGKALGISHTYANVRINHVINLWGADFDAEGNLEAIYVTDSDSNASIGMKKYFVGVNSNGKVAISAKEIEEDNIGAQVLGLFTLSTGQDIWNQTNLEHHHHHH

>  <Reported result>
0

$$$$
>  <Protein>
PRT-466 (protein) MITSVWTKGVTPPTDFIKGEDVFHAPYKAGQGWYDITKAFDGGDDLLCGAATAGNMLHWWFDQNKDQIERYLKEHPEKQKINFNGEQMFDVKEAIDTKDSQTNSELFNYFKEKAFPYLSTKHLGVFPDHVLDMFINGYRLSLTNHGPTPVKRQEKDPRGGIFDAVFGRGDQTKLLTSRHDFKEKTLNEISQLIKQELTEGKALGLSHTYANVRINHVINLWGADFDAEGNLEAIYVTDSDSNASIGMKKYFVGVNSAGKVAISAKEIKEDNIGAQVLGLFTLSTGQKIWNKTNLEHHHHHH

>  <Reported result>
303

$$$$
>  <Protein>
PRT-446 (protein) MVTSVWTKGVTPPTDFIKGEDVFHAPYKAGQGWYDITKTFNGKDDLLCGAATAGNMLHWWFDQNKDQIEAYLKEHPEKQKINFNGEQMFDVKEAIDTKDDQTNSKLFEYFKEKAFPYLSTKHLGVFPDHVLDMFINGYRLSLTNHGPTPVKEGSKDPRGGIFDAVFTRGDQSKLLTSRHDFKEKTLKEISDLIKQELTEGKALALSHTYANVRINHVINLWGADFDSNGNLEAIYVTDSDSNASIGMKKYFVGVNSAGKVAISAKEIEDDNIGAQVLGLFTLSTGQDIWNQTNLEHHHHHH

>  <Reported result>
0

$$$$

Moving on to another protein below.
Challenge: Sample PRT-105 (protein) MANQEIRYSEVTPYHVTSVWTKGVTPPAKFTQGEDVFHAPYVANQGWYDITKTFNGKDDLLCGAATAGNMLHWWFDQNKEEIEAYLKKHPDKQKIMFGDQELLDVRKVINTKGDQTNSELFNYFRDKAFPGLSARRIGVMPDLVLDMFINGYYLNVYKTQTTDVNRTYQEKDRRGGIFDAVFTRGDQSKLLTSRHDFKEKNLKEISDLIKKELTEGKALGLSHTYANVRINHVINLWGADFDSNGNLKAIYVTDSDSNASIGMKKYFVGVNSAGKVAISAKEIKEDNIGAQVLGLFTLSTGQDSWNQTN — what was its Enzyme Activity Endpoint Assay: scIgG?
Response given: 13
